FYI, the data here is from paper PMC12040169.

Test system: CTL2-GFP (C. trachomatis L2/434/Bu, GFP-expressing)
Construct: L2/434/Bu, GFP-expressing
PROTOCOL: microbe, parasite or virus in culture
Design: Intracellular C. trachomatis growth in HeLa cells, bulk GFP fluorescence relative to DMSO
SETUP CONDITIONS: Chlamydia trachomatis, HeLa, 28.5 h; bulk GFP, mean of 2; read-out: % of control remaining
RECORDED METRIC: activity at 1 µM (%)
The figure you give is taken to be in %; do not add the unit.

Below, 2 molecules whose answers are already recorded.
[
  {
    "MOLECULE": "CC(C)Nc1nc2cc(Cl)c(Cl)cc2nc1Sc1cccc(O)c1 [CBK093732]",
    "activity at 1 µM (%)": 124
  },
  {
    "MOLECULE": "CC(C)(CN)CN(Cc1ccc(-c2ccccc2)cc1)C(=O)Nc1ccccc1C(C)(C)C [CBK002476C]",
    "activity at 1 µM (%)": 98.7
  }
]

Data request: I'm curious: which activity at 1 µM was measured for COc1ccc([C@H]2CN(Cc3ccccc3)[C@@H]3CCN(C(=O)Cc4ccccc4)C[C@H]23)cc1 [CBK286285] tested on CTL2-GFP (C. trachomatis L2/434/Bu, GFP-expressing)?
Data returned: 130

Data request: I'm curious: which activity at 1 µM was measured for CC(=O)Nc1ccc(S(=O)(=O)Nc2ccc(C(=O)Nc3ccc(F)cc3)cc2)cc1 [CBK050401] tested on CTL2-GFP (C. trachomatis L2/434/Bu, GFP-expressing)?
Data returned: 101

Data request: I'm curious: which activity at 1 µM was measured for COc1c(Br)cc2c(cc(C)n2-c2ccccc2)c1OCC(O)CNC(C)C (stereo not shown) [CBK263516] tested on CTL2-GFP (C. trachomatis L2/434/Bu, GFP-expressing)?
Data returned: 6.43

Data request: I'm curious: which activity at 1 µM was measured for CCc1ccc(S(=O)(=O)Nc2cc(SCC(=O)O)c(O)c3ccccc23)cc1 [CBK265580] tested on CTL2-GFP (C. trachomatis L2/434/Bu, GFP-expressing)?
Data returned: 97.7

Data request: I'm curious: which activity at 1 µM was measured for CCCCc1ccc(NC(=N)Nc2nc(C)cc(C)n2)cc1 [CBK262967] tested on CTL2-GFP (C. trachomatis L2/434/Bu, GFP-expressing)?
Data returned: 89.4
